Value source: ChEMBL document CHEMBL3259614

Measured Tmax accompanies every entry in the list below.
# experimental protocol: Tmax in Sprague-Dawley rat at 10 mg/kg, po
# Assay type: ADME, organism-based
# Design: dose 10 mg/kg, route oral
# experimental context: in vivo
Kindly provide the numeric value in h only, without the unit symbol.

// query For the compound C[C@@H](N1CCc2nc(-c3cncnc3)sc2C1)[C@](O)(Cn1cncn1)c1ccc(F)cc1F.O.O=S(=O)(O)O , what Tmax is on record?
// result 0.25

Next:
// query Quick one: Tmax of C[C@@H](N1CCn2nc(-c3ccc(C#N)nc3)nc2C1)[C@](O)(Cn1cncn1)c1ccc(F)cc1F ?
// result 1.75
